# test-details: Oral bioavailability in mouse (nude) (dose of 25 mg/kg)
# Type: ADME, organism-based
# measurement-context: in vivo
Collected bioavailability values appear next to each entry.

Sample records with bioavailability:
• O=C(Cc1cc[n+]([O-])cc1)N1CCN(C2c3ccc(Cl)cc3CCc3cc(Br)cnc32)CC1 (centres undefined) = 84%
• O=C(Cc1cc[n+]([O-])cc1)N1CCN([C@H]2c3ccc(Cl)cc3CCc3cc(Br)cnc32)CC1 = 100%
• CN1CCC(CC(=O)N2CCN(C3c4ccc(Cl)cc4CCc4cc(Br)cnc43)CC2)CC1 (centres undefined) = 45%
• O=C(Cc1ccncc1)N1CCN(C2c3ccc(Cl)cc3CCc3cccnc32)CC1 (centres undefined) = 13%
• O=C(Cc1cc[n+]([O-])cc1)N1CCN([C@@H]2c3ccc(Cl)cc3CCc3cccnc32)CC1 = 53%

Qu. Look up bioavailability for this molecule: O=C(Cc1ccc[n+]([O-])c1)N1CCN(C2c3ccc(Cl)cc3CCc3cccnc32)CC1 (centres undefined)
Ans. 89%

Qu. Look up bioavailability for this molecule: O=C(Cc1cc[n+]([O-])cc1)N1CCN([C@H]2c3ccc(Cl)cc3CCc3cccnc32)CC1
Ans. 72%

Qu. Look up bioavailability for this molecule: CN1CCC(CC(=O)N2CCN(C3c4ccc(Cl)cc4CCc4cccnc43)CC2)CC1 (centres undefined)
Ans. 32%

Qu. Look up bioavailability for this molecule: O=C(Cc1ccc[n+]([O-])c1)N1CCN(C2c3ccc(Cl)cc3CCc3cc(Br)cnc32)CC1 (centres undefined)
Ans. 100%

* * *

# test-details: In vivo antitumor efficacy in cynomolgus monkeys 0-48 hr after peroral dose of 5 mg/kg expressed as Area under the curve
# Format: ADME, organism-based, Macaca fascicularis
# Design: time < 48 hr, dose 5 mg/kg, route oral
# measurement-context: cynomolgus monkey, po
assay-readout: AUC at 48 h (ng·h/mL)
Provide only the numeric value, understood in ng·h/mL.

Qu. Look up AUC at 48 h for this compound: O=C(Cc1cc[n+]([O-])cc1)N1CCN(C2c3ccc(Cl)cc3CCc3cc(Br)cnc32)CC1 (stereo unspecified)
Ans. 9400

* * *

# test-details: In vivo antitumor efficacy in nude mice after peroral dose of 10 mg/kg expressed as Area under the curve
# Type: ADME, organism-based
# Parameters: dose 10 mg/kg, route oral
# measurement-context: mouse, po
assay-readout: AUC (ng·h/mL)
Provide only the numeric value, understood in ng·h/mL.

Qu. Look up AUC for this compound: O=C(Cc1cc[n+]([O-])cc1)N1CCN(C2c3ccc(Cl)cc3CCc3cc(Br)cnc32)CC1 (stereo unspecified)
Ans. 16700

* * *

# assay-system: Protein farnesyltransferase (Homo sapiens, UniProt P49354+P49356)
# test-details: In vitro inhibition of farnesyltransferase farnesylation of the H-ras oncogene
# Assay type: protein-complex assay
assay-readout: pIC50
API: returns pIC50 as number; meaning -log10 of concentration in mol/L.

* COC(=O)N1CCCC(CC(=O)N2CCN(C3c4ccc(Cl)cc4CCc4cccnc43)CC2)C1 (stereo not given) | 5.15
* CC(C(=O)N1CCN(C2c3ccc(Cl)cc3CCc3cccnc32)CC1)c1cccnc1 (stereo not given) | 5.31
* CCNC(=O)N1CCC(CC(=O)N2CCN(C3c4ccc(Cl)cc4CCc4cccnc43)CC2)CC1 (stereo not given) | 6.04
* CCCNC(=O)N1CCC(CC(=O)N2CCN(C3c4ccc(Cl)cc4CCc4cc(Br)cnc43)CC2)CC1 (stereo not given) | 7.00
* CN1CCC(NC(=O)N2CCN(C3c4ccc(Cl)cc4CCc4cc(Br)cnc43)CC2)CC1 (stereo not given) | 7.39

Next:
Qu. Look up pIC50 for this compound: O=C(N1CCN(C2c3ccc(Cl)cc3CCc3cccnc32)CC1)n1ccnc1 (stereo not given)
Ans. 5.01

* * *

# test-details: Oral bioavailability in mouse (nude) (dose 25 mg/kg i.v.)
# Type: ADME, organism-based
# measurement-context: in vivo
Collected bioavailability values appear next to each entry.
Provide only the numeric value, understood in %.

Sample records with bioavailability:
• CNC(=O)N1CCC(CC(=O)N2CCN(C3c4ccc(Cl)cc4CCc4cc(Br)cnc43)CC2)CC1 (configuration not stated) = 100
• CN1CCC(CC(=O)N2CCN(C3c4ccc(Cl)cc4CCc4cc(Br)cnc43)CC2)CC1 (configuration not stated) = 100
• CC(=O)N1CCC(CC(=O)N2CCN(C3c4ccc(Cl)cc4CCc4cc(Br)cnc43)CC2)CC1 (configuration not stated) = 28.8
• CN1CCCC(CC(=O)N2CCN(C3c4ccc(Cl)cc4CCc4cc(Br)cnc43)CC2)C1 (configuration not stated) = 100
• O=C(Cc1cccnc1)N1CCN(C2c3ccc(Cl)cc3CCc3cccnc32)CC1 (configuration not stated) = 36
• NC(=O)N1CCC(CC(=O)N2CCN(C3c4ccc(Cl)cc4CCc4cc(Br)cnc43)CC2)CC1 (configuration not stated) = 100

Qu. Look up bioavailability for this compound: O=C(CC1CCNCC1)N1CCN(C2c3ccc(Cl)cc3CCc3cc(Br)cnc32)CC1 (configuration not stated)
Ans. 65

* * *

Collected bioavailability values appear next to each entry.
# test-details: Oral bioavailability in mouse (nude) (dose of 25 mg/kg)
# Format: ADME, organism-based
# measurement-context: in vivo
Provide only the numeric value, understood in %.

Qu. Look up bioavailability for this molecule: CC(C)(C(=O)N1CCN(C2c3ccc(Cl)cc3CCc3cc(Br)cnc32)CC1)c1ccc[n+]([O-])c1 (centres undefined)
Ans. 47

Qu. Look up bioavailability for this molecule: O=C(Cc1ccncc1)N1CCN(C2c3ccc(Cl)cc3CCc3cc(Br)cnc32)CC1 (centres undefined)
Ans. 20.8

Qu. Look up bioavailability for this molecule: O=C(Cc1cc[n+]([O-])cc1)N1CCN([C@@H]2c3ccc(Cl)cc3CCc3cc(Br)cnc32)CC1
Ans. 100

Qu. Look up bioavailability for this molecule: CCCC[C@H]1CN(C2c3ccc(Cl)cc3CCc3cc(Br)cnc32)CCN1C(=O)Cc1cc[n+]([O-])cc1 (some centres undefined)
Ans. 47

* * *

# Tested on: Mus musculus
# test-details: In vivo antitumor efficacy after peroral dose of 25 mg/kg in mice expressed as duration for which compound was present above IC50
# Assay type: ADME, organism-based
# Set-up: dose 25 mg/kg, route oral
# measurement-context: po
Collected Time above IC50 values appear next to each entry.
Provide only the numeric value, understood in h.

Sample records with Time above IC50:
• O=C(Cc1cc[n+]([O-])cc1)N1CCN([C@H]2c3ccc(Cl)cc3CCc3cc(Br)cnc32)CC1 = 7
• CC(C)(C(=O)N1CCN(C2c3ccc(Cl)cc3CCc3cc(Br)cnc32)CC1)c1ccc[n+]([O-])c1 (stereo not drawn) = 4
• O=C(Cc1cc[n+]([O-])cc1)N1CCN([C@@H]2c3ccc(Cl)cc3CCc3cc(Br)cnc32)CC1 = 7
• O=C(Cc1cc[n+]([O-])cc1)N1CCN([C@H]2c3ccc(Cl)cc3CCc3cccnc32)CC1 = 4
• CCCC[C@H]1CN(C2c3ccc(Cl)cc3CCc3cc(Br)cnc32)CCN1C(=O)Cc1cc[n+]([O-])cc1 (stereo partly drawn) = 7

Qu. Look up Time above IC50 for this compound: COCC[C@H]1CN(C2c3ccc(Cl)cc3CCc3cc(Br)cnc32)CCN1C(=O)Cc1cc[n+]([O-])cc1 (stereo partly drawn)
Ans. 7

Qu. Look up Time above IC50 for this compound: O=C(Cc1cc[n+]([O-])cc1)N1CCN(C2c3ccc(Cl)cc3CCc3cc(Br)cnc32)CC1 (stereo not drawn)
Ans. 7

Qu. Look up Time above IC50 for this compound: O=C(Cc1ccc[n+]([O-])c1)N1CCN(C2c3ccc(Cl)cc3CCc3cccnc32)CC1 (stereo not drawn)
Ans. 4

* * *

# test-details: In vivo antitumor efficacy expressed as maximum plasma concentration 0.4 hr after a peroral dose of 25 mg/kg in cynomolgus monkeys
# Assay type: ADME, organism-based, Macaca fascicularis
# Design: dose 25 mg/kg, route oral
# measurement-context: cynomolgus monkey, po
assay-readout: Cmax (nM)
Provide only the numeric value, understood in nM.

Qu. Look up Cmax for this compound: O=C(Cc1cc[n+]([O-])cc1)N1CCN([C@@H]2c3ccc(Cl)cc3CCc3cc(Br)cnc32)CC1
Ans. 1800

* * *

# test-details: In vivo antitumor efficacy in cynomolgus monkeys by injecting a dose of 5 mg/kg, as HCl salt in saline solution, iv and the serum half-life was determined
# Type: ADME, organism-based, Macaca fascicularis
# Design: dose 5 mg/kg, route intravenous
# measurement-context: cynomolgus monkey
assay-readout: half-life (min)
Provide only the numeric value, understood in min.

Qu. Look up half-life for this molecule: NC(=O)N1CCC(CC(=O)N2CCN(C3c4ccc(Cl)cc4CCc4cc(Br)cnc43)CC2)CC1 (stereo unspecified)
Ans. 144

Source: ChEMBL document CHEMBL1131493
